experimentalSystem: T1, human CD3 on CD3+ Jurkat cells (human, UniProt P07766 23-207)
T1 construct: whole, on cells; Native CD3 complex on cells; the other CD3 chains are not specified for this assay; also called Human CD3+ Jurkat
T1 sequence (P07766 23-207): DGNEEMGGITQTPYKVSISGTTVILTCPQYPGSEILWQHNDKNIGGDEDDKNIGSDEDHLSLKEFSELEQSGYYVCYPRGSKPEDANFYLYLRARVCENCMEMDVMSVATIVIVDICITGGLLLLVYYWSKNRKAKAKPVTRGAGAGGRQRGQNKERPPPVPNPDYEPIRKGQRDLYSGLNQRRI
testProtocol: flow cytometry, 100 nM IgG on CD3+ Jurkat cells, pH 6.0

# binder, MFI pH 6.0 [MFI]
records = [
    ("SAD10319_P03_A08 (ADI-48636) (antibody, V domains shown, IgG; also called Ab230) VH: QVQLVQSGAEVKKPGASVKVSCKASGYTFTDYDMHWVRQAPGQRLEWMGWIDAGTGLTKYSQKFQGRVTITRDTSASTAYMELSSLRSEDTAVYYCARDHYGHYFYDVWGQGTLVTVSS VL: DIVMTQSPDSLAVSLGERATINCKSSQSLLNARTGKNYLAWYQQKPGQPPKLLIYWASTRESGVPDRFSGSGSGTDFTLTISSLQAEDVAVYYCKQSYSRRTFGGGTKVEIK", 897),
    ("SAD10320_P04_G10 (ADI-48658) (antibody, V domains shown, IgG; also called Ab108) VH: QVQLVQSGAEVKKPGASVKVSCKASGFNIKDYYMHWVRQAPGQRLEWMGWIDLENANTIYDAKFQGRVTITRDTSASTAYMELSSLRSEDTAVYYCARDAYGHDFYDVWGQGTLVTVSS VL: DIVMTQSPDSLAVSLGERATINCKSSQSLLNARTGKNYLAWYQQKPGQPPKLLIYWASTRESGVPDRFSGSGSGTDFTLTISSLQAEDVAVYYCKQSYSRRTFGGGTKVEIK", 113),
    ("LAD9965_P01_H07 (ADI-48666) (antibody, V domains shown, IgG; also called Ab177) VH: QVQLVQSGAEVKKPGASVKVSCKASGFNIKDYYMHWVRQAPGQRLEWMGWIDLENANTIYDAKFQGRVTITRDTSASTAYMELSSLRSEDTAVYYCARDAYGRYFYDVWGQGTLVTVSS VL: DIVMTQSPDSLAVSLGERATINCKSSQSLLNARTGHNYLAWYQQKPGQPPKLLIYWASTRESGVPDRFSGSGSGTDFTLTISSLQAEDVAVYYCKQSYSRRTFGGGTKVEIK", 5700),
    ("SAD10318_P02_G06 (ADI-48600) (antibody, V domains shown, IgG; also called Ab189) VH: QVQLVQSGAEVKKPGASVKVSCKASGFNIKDYYMHWVRQAPGQRLEWMGWIDLENANTIYDAKFQGRVTITRDTSASTAYMELSSLRSEDTAVYYCAHDAYGHYFYDVWGQGTLVTVSS VL: DIVMTQSPDSLAVSLGERATINCKSSQSLLHTRTGKNYLAWYQQKPGQPPKLLIYWASTRESGVPDRFSGSGSGTDFTLTISSLQAEDVAVYYCKQSYSRRTFGGGTKVEIK", 2900),
    ("SAD10318_P01_D03 (ADI-48588) (antibody, V domains shown, IgG; also called Ab58) VH: QVQLVQSGAEVKKPGASVKVSCKASGFNIKDYYMHWVRQAPGQRLEWMGWIDLENANTIYDAKFQGRVTITRDTSASTAYMELSSLRSEDTAVYYCARDHYGHYFYDVWGQGTLVTVSS VL: DIVMTQSPDSLAVSLGERATINCKSSQSLLNAHTGHNYLAWYQQKPGQPPKLLIYWASTRESGVPDRFSGSGSGTDFTLTISSLQAEDVAVYYCKQSHSHRTFGGGTKVEIK", 4940),
]
